Target: pre-existing anti-drug antibodies (ADA) present in human sera
Assay: pre-existing ADA ELISA, scFv coated, human sera unspiked vs spiked
readout: Mean No of serum samples >30% inhibition (30% CCP) with SCP (serum samples)
The answer should be written as a number, with no unit following it.

Mean No of serum samples >30% inhibition (30% CCP) with SCP (serum samples) lookup needed for PRO2936 (scFv 54-21-H03-sc01_(T101S, T146Q)) (scFv, PRO1922 variant; VH substitutions, AHo numbering; also called PRO1922 T101S-T146Q) scFv: DIQMTQSPSSLSASVGDRVTITCQASESIYSSLAWYQQKPGKAPKLLIYLASTLASGVPSRFSGSGSGTDFTLTISSLQPEDFATYYCQSTDYTTSTHRNSFGTGTKVTVLGGGGGSGGGGSGGGGSGGGGSEVQLVESGGGLVQPGGSLRLSCAASGFSFSTTYYMCWVRQAPGKGLEWIGCTNTASSVRTYYATWAKGRFTISRDNSKNTVYLQMNSLRAEDSAVYYCARDMGFADYALNLWGQGTLVQVSS , thanks.
1

Similarly, PRO2990 (scFv 54-21-H03-sc01_(L12S, V103T, L144T)) (scFv, VH substitutions, AHo numbering; also called PRO1922-L12S-V103T-L144T) scFv: DIQMTQSPSSLSASVGDRVTITCQASESIYSSLAWYQQKPGKAPKLLIYLASTLASGVPSRFSGSGSGTDFTLTISSLQPEDFATYYCQSTDYTTSTHRNSFGTGTKVTVLGGGGGSGGGGSGGGGSGGGGSEVQLVESGGGSVQPGGSLRLSCAASGFSFSTTYYMCWVRQAPGKGLEWIGCTNTASSVRTYYATWAKGRFTISRDNSKNTVYLQMNSLRAEDTATYYCARDMGFADYALNLWGQGTTVTVSS ?
4

Try the binder PRO3322 (scFv 54-21-H03-sc01_(L12R, T101R, L144A, T146Q)) (scFv, PRO1922 variant; VH substitutions, AHo numbering; also called PRO1922 L12R-T101R-L144A-T146Q) scFv: DIQMTQSPSSLSASVGDRVTITCQASESIYSSLAWYQQKPGKAPKLLIYLASTLASGVPSRFSGSGSGTDFTLTISSLQPEDFATYYCQSTDYTTSTHRNSFGTGTKVTVLGGGGGSGGGGSGGGGSGGGGSEVQLVESGGGRVQPGGSLRLSCAASGFSFSTTYYMCWVRQAPGKGLEWIGCTNTASSVRTYYATWAKGRFTISRDNSKNTVYLQMNSLRAEDRAVYYCARDMGFADYALNLWGQGTAVQVSS
0

Could you do the same for PRO3317 (scFv 37-20-B03-sc09.1_(T101Q)) (scFv, PRO2230 variant; VH substitution, AHo numbering; also called PRO2230 T101Q) scFv: DIQMTQSPASLSASVGDRVTITCQASQSIGTYLAWYQQKPGKPPKLLIYRAFILASGVPSRFSGSGSGTDFTLTISSLQPEDFATYYCQSNFYSDSTTIGPNAFGTGTKVTVLGGGGGSGGGGSGGGGSGGGGSEVQLVESGGGLVQPGGSLRLSCAASGFSFNSDYWIYWVRQAPGKGLEWIASIYGGSSGNTQYASWAQGRFTISRDNSKNTVYLQMNSLRAEDQAVYFCARGYVDYGGATDLWGQGTLVTVSS , please?
1

Cool, now PRO3319 (scFv 54-21-H03-sc01_(L12A, T101S, L144A, T146R)) (scFv, PRO1922 variant; VH substitutions, AHo numbering; also called PRO1922 L12A-T101S-L144A-T146R) scFv: DIQMTQSPSSLSASVGDRVTITCQASESIYSSLAWYQQKPGKAPKLLIYLASTLASGVPSRFSGSGSGTDFTLTISSLQPEDFATYYCQSTDYTTSTHRNSFGTGTKVTVLGGGGGSGGGGSGGGGSGGGGSEVQLVESGGGAVQPGGSLRLSCAASGFSFSTTYYMCWVRQAPGKGLEWIGCTNTASSVRTYYATWAKGRFTISRDNSKNTVYLQMNSLRAEDSAVYYCARDMGFADYALNLWGQGTAVRVSS
0
